Molecular target: 5-HT1A receptor (Homo sapiens, UniProt P08908)
Construct: expressed in transfected cells
Sequence (P08908 whole entry): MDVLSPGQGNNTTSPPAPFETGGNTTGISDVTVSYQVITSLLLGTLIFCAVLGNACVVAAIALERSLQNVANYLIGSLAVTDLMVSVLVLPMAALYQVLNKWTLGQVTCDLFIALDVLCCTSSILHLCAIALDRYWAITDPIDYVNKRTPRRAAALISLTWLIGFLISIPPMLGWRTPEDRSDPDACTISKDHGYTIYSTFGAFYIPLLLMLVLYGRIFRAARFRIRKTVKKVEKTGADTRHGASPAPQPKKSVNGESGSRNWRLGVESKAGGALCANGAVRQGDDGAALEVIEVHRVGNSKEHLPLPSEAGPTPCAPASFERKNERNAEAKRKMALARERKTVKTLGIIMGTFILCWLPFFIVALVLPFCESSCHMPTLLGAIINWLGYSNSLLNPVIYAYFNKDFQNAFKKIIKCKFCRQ
Assay: 5-HT1A receptor cAMP agonist test
Format: cell-based
Conditions: HEK293 cell strain stably expressing 5-HT1A receptor; positive control serotonin 10^−6 M
Excerpt: • cAMP detection kit was purchased from Cisbio; an HEK293 cell strain stably expressing 5-HT1A receptor was constructed by Shanghai Shujing Biopharma Co., Ltd.; serotonin, forskolin, and IBMX were purchased from Sigma; ProxiPlate-384 well plates were purchased from PerkinElmer; HBSS was purchased from Thermo Fisher Scientific. • (1) The cultured cells were digested with trypsin, and the cell suspension was washed with HBSS buffer after the digestion was terminated. […]
Some molecules, each annotated with its measured 5-HT1A Max Act %.
Give the value, in units of %, as a plain number.

O=C1Nc2cc(OCCCCN3CCN(c4cccc5c4OCC5)CC3)ccc2C2CC12 (single isomer, unassigned) [Example 44-P1] : 49.5

Just so you know, measured 5-HT1A Max Act % for O=C1Nc2cc(OCCCCN3CCN(c4cccc5c4OCC5)CC3)ccc2C2CC12 (centres unmarked) [Example 44] came out at 58.9

Reported 5-HT1A Max Act % ( O=C1Nc2cc(OCCCCN3CCN(c4cccc5sccc45)CC3)ccc2C2CC12 (single isomer, unassigned) [Example 42-P1] ) = 62.9

Lab note: measured 5-HT1A Max Act % of O=C1Nc2cc(OCCCCN3CCN(c4cccc5c4CCC5)CC3)ccc2C2CC12 (single isomer, unassigned) [Example 43-P1] was 68.3

Measured 5-HT1A Max Act % of O=C1Nc2cc(OCCCCN3CCN(c4cccc(Cl)c4Cl)CC3)ccc2C2CC12 (centres unmarked) : 50.2

Reported 5-HT1A Max Act % of O=C1Nc2cc(OCCCCN3CCN(c4cccc(Cl)c4Cl)CC3)ccc2[C@@H]2C[C@H]12 (single isomer, unassigned) [Example 1-P2] : 45.2

The measured 5-HT1A Max Act % associated with O=C1Nc2cc(OCCCCN3CCN(c4ccc(Cl)s4)CC3)ccc2C2CC12 (centres unmarked) reads 79.4

5-HT1A Max Act % recorded for this molecule, O=C1Nc2cc(OCCCCN3CCN(c4cccc5c4OCC5)CC3)ccc2C2CC12 (single isomer, unassigned) [Example 44-P2] , is 48.0

The reported value for O=C1Nc2cc(OCCCCN3CCN(c4cccc5c4CC(F)(F)C5)CC3)ccc2C2CC12 (centres unmarked) in terms of 5-HT1A Max Act % is 62.6

// O=C1Nc2cc(OCCCCN3CCN(c4cccc(Cl)c4Cl)CC3)ccc2[C@H]2C[C@@H]12 (single isomer, unassigned) [Example 1-P1] : 5-HT1A Max Act % value = 33.9

Short answer for O=C1Nc2cc(OCCCCN3CCN(c4cccc5c4CC(F)(F)C5=O)CC3)ccc2C2CC12 (centres unmarked) : 5-HT1A Max Act % was 75.8
